- protocol: C. albicans growth with fluconazole, confirmation, fluorescence, retest (AID 2467)
- Type: functional, cell-based
Active and inactive are the calls of the source.
Below, each entry is listed alongside its reported EC50.
metric_name: EC50

| compound | metric_name | value_reported |
| --- | --- | --- |
| O=C(/C=C/c1ccco1)Oc1cc(Br)cc(/C=N/NC(=O)c2ccccc2O)c1 | EC50 | 1.49 µM (active) |
| Cc1ccc(C)c(NC(S)=NNC(=O)c2csc3c2CCC(C)C3)c1 (stereo not given) | EC50 | 3.32 µM (active) |
| CCOc1ccc2c(c1)OC(c1ccc(C)cc1)(C(F)(F)F)NC2=O (stereo not given) | EC50 | > 38 µM (not active) |
| CCOC(=O)Cc1csc(NC(=O)CSc2nnc(-c3ccc(NS(=O)(=O)CC)cc3)o2)n1 | EC50 | > 38 µM (not active) |
| CCOc1ccc(NC(S)=NNC(=O)c2ccc(Br)cc2)cc1 | EC50 | 0.688 µM (active) |

* * *

- Test system: BJ
- protocol: cytotoxicity toward BJ-TERT-LT-ST fibroblasts, dose response, cell-based, RAS-independent, luminescence (AID 1935);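 also: BJ fibroblasts immortalized with TERT plus LT and ST oncogenes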
- Format: functional
- measurement_setup: Homo sapiens
Calls of active or inactive are those of the source.

| molecule | EC50 |
| --- | --- |
| COc1ccc(-c2cc3c(=O)n(CC(=O)NCCCN4CCC(Cc5ccccc5)CC4)ncn3n2)cc1 | 12.9 µM (inconclusive) |
| O=C(O)COc1cccc(/C=C2/SC(=S)N(Cc3ccccc3)C2=O)c1 | > 150 µM (inconclusive) |
| CCCCC/N=C\c1c(C)nn(-c2nc3ccccc3s2)c1O | 4.84 µM (active) |
| Oc1cccc2ccc(/C=C/c3ccccc3Cl)nc12 | > 150 µM (inconclusive) |
| CCn1cnc2c([N+](=O)[O-])c(NS(=O)(=O)c3ccc(C)cc3)ccc21 | > 150 µM (inconclusive) |
| COc1cc(O)oc1/C=N/c1ccc(C(=O)O)cc1 | > 150 µM (inconclusive) |
| CCOc1ccc2c(c1)OC(c1ccc(C)cc1)(C(F)(F)F)NC2=O (stereo not given) | 1.32 µM (inconclusive) |
| O=[N+]([O-])c1ccc(Sc2nnnn2-c2ccccc2)nc1 | > 150 µM (inconclusive) |
| Oc1ccc(/C=N/Nc2nccnc2Cl)c(O)c1 | 10.9 µM (active) |
| O=Nc1c2cc(-c3ccccc3)n[nH]c-2c2ccccc12 | > 150 µM (not active) |

* * *

- target: UniProt P01375
- Sequence (P01375 whole entry): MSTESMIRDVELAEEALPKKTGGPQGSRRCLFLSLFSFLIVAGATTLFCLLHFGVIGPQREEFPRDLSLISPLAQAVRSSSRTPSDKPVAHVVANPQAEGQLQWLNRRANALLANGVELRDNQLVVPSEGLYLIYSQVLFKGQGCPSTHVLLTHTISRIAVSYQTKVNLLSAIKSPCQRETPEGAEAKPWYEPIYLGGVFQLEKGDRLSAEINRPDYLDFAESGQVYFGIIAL
- protocol: TNFa-triggered NF-kB activation inhibitors, SAR follow-up, cell-based, revised (AID 2337)
- Assay type: functional
Calls of active or inactive are those of the source.
Outcome codes: active, inactive

| compound_structure_string | target | group_label |
| --- | --- | --- |
| O=C(O)c1c(-n2cccc2)sc2c1CCCC2 | UniProt P01375 | inactive |
| N#C/C(=C(/O)COC(=O)CSc1ccc(Cl)cc1)c1nc2ccccc2[nH]1 | UniProt P01375 | inactive |
| O=C(Nc1nc2ccccc2n1Cc1ccc(Cl)cc1)c1ccc(F)cc1 | UniProt P01375 | inactive |
| O=C(Nc1nc2ccccc2n1Cc1ccc(Cl)cc1)C1CCCCC1 | UniProt P01375 | inactive |
| Nc1nc2ccccc2n1S(=O)(=O)c1ccc([N+](=O)[O-])cc1 | UniProt P01375 | inactive |
| CC(=O)Nc1nc2ccccc2n1Cc1ccccc1Cl | UniProt P01375 | active |

* * *

Entries and their measured IC50 follow.
- target: UniProt P61088
- Sequence (P61088 whole entry): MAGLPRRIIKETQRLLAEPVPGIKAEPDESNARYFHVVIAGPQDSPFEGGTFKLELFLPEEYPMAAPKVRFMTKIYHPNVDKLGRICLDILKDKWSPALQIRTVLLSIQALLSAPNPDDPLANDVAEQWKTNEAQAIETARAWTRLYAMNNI
- Type: functional
Active and inactive are the calls of the source.

| compound | IC50 |
| --- | --- |
| CN1CC2=Cc3ccccc3OC23Oc2ccccc2C=C3C1 | 3.5 µM (active) |
| NC(=O)NC(CC(=O)NNC(=O)c1ccccn1)c1ccc(Cl)cc1 (centres undefined) | 19.6 µM (active) |
| COc1cccc(/C=N\NC(=O)c2sc(N)nc2C)c1OC | 0.947 µM (active) |
| O=C(CSCc1ccc([N+](=O)[O-])cc1)N[N-][C+]1CCCCCC1 | 5.71 µM (active) |

* * *

Reported IC50 by item:
- target: Apoptotic protease-activating factor 1 (Homo sapiens)
- Sequence (O14727 whole entry): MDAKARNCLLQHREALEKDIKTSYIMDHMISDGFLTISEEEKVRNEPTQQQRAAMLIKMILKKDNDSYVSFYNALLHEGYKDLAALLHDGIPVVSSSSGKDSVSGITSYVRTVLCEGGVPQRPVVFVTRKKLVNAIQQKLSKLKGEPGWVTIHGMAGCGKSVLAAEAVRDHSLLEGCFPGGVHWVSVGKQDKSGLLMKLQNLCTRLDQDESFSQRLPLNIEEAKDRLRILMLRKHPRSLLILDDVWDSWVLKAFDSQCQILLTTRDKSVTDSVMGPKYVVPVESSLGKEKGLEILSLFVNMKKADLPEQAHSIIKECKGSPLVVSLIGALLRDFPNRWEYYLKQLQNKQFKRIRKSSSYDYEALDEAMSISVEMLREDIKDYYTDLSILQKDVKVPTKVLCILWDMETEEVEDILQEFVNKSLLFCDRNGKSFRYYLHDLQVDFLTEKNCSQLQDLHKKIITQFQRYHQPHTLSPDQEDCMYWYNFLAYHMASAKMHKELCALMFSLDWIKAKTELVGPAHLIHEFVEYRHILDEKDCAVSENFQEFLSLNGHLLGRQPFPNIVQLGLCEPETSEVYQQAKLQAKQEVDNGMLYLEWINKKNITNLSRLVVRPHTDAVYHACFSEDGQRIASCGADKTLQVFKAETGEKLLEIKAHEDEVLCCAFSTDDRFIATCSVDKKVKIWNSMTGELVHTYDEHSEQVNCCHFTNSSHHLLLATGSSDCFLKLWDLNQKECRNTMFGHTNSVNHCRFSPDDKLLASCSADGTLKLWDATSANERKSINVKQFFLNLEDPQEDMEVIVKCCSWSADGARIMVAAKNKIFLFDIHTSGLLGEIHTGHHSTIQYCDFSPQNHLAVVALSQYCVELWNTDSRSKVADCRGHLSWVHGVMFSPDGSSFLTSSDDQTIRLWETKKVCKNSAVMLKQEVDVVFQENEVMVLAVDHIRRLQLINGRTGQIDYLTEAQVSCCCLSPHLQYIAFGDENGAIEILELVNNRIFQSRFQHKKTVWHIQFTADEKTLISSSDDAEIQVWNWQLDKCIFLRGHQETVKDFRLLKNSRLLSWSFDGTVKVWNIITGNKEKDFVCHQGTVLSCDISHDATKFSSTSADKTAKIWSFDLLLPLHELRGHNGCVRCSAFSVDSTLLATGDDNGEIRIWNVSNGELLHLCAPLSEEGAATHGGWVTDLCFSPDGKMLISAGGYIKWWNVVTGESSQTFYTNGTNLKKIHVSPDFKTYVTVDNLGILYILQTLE
- Format: functional
Calls of active or inactive are those of the source.
metric_name: IC50

| molecule | value_reported |
| --- | --- |
| CCOC(=O)C1CCCN(C2=C(NS(=O)(=O)c3ccc(Br)cc3)C(=O)c3ccccc3C2=O)C1 (stereo not given) | 19.5 µM (active) |
| Cc1[nH][nH]c(=O)c1C(c1c(C)[nH][nH]c1=O)c1cn(Cc2cccc3ccccc23)c2ccccc12 | 19.3 µM (active) |
| C[C@@]12CCC=C[C@H]1[C@H](c1ccc3ccccc3c1Br)N(Cc1ccccc1)C2=O | 59.3 µM (active) |
| COc1ccc2c(c1)c1ccc3c(c1n2C)C(=O)C=CC3=O | 19.3 µM (active) |
| CC(=O)N(/N=C1\Sc2ccccc2C1=O)c1cccc(C)c1 | 4.46 µM (active) |

* * *

- System: Streptococcus
- protocol: Group A Streptococcus viability loss, dose response, counter-screen for streptokinase expression inhibitor project, luminescence, BacTiterGlo (AID 1915);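 also: potency for reduction of bacterial viability or growth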
- Type: functional, organism-based
Active and inactive are the calls of the source.
Reported EC50 values follow for various molecules
metric_name: EC50

| molecule | target | value_reported |
| --- | --- | --- |
| Oc1cccc2ccc(/C=C/c3ccccc3Cl)nc12 | Streptococcus | 1.3 µM (active) |
| COc1ccccc1N1CC(C(=O)Nc2nnc(SCC(=O)NCC3CCCO3)s2)CC1=O (stereo not given) | Streptococcus | > 150 µM (not active) |
| CC1Oc2cc3oc4c(O)c(O)ccc4c(=O)c3c(O)c2C1(C)C (stereo not given) [TOXYLOXANTHONE C] | Streptococcus | 8.07 µM (active) |
| COC(=O)c1cc(-c2ccc(Br)cc2)c2c(=O)[nH]c(=O)n(C)c2n1 | Streptococcus | 5.63 µM (active) |
| CCOC(=O)c1sc2ncnc(N3CCN(c4ccc(OC)cc4)CC3)c2c1C | Streptococcus | > 150 µM (not active) |
| CCc1ccc(-c2cc(C)no2)cc1S(=O)(=O)Nc1cccc(CN2CCCC2)c1 | Streptococcus | > 150 µM (not active) |
| CCCN=C1C(=O)C2=C(C(O)=C1C)N1CC3NC3[C@@]1(OC)C2COC(N)=O (stereo not given in full) | Streptococcus | 0.153 µM (active) |
| COc1ccc(C(=O)NC(=S)Nc2ccc(N3CCOCC3)c(Cl)c2)cc1[N+](=O)[O-] | Streptococcus | 19.3 µM (active) |
| Cc1ccc(C(=O)NC(=S)NNC(=O)c2cccc([N+](=O)[O-])c2)cc1 | Streptococcus | 21.7 µM (active) |
| Cc1c(N=N/C(C#N)=C(\O)c2ccccc2)c(=O)n(-c2ccccc2)n1C | Streptococcus | 7.26 µM (active) |

* * *

Below is a list of entries, each paired with its recorded IC50 value.
- target: Fatty acid synthase (Homo sapiens, UniProt P49327)
- Sequence (P49327 whole entry, the tested form may be a part): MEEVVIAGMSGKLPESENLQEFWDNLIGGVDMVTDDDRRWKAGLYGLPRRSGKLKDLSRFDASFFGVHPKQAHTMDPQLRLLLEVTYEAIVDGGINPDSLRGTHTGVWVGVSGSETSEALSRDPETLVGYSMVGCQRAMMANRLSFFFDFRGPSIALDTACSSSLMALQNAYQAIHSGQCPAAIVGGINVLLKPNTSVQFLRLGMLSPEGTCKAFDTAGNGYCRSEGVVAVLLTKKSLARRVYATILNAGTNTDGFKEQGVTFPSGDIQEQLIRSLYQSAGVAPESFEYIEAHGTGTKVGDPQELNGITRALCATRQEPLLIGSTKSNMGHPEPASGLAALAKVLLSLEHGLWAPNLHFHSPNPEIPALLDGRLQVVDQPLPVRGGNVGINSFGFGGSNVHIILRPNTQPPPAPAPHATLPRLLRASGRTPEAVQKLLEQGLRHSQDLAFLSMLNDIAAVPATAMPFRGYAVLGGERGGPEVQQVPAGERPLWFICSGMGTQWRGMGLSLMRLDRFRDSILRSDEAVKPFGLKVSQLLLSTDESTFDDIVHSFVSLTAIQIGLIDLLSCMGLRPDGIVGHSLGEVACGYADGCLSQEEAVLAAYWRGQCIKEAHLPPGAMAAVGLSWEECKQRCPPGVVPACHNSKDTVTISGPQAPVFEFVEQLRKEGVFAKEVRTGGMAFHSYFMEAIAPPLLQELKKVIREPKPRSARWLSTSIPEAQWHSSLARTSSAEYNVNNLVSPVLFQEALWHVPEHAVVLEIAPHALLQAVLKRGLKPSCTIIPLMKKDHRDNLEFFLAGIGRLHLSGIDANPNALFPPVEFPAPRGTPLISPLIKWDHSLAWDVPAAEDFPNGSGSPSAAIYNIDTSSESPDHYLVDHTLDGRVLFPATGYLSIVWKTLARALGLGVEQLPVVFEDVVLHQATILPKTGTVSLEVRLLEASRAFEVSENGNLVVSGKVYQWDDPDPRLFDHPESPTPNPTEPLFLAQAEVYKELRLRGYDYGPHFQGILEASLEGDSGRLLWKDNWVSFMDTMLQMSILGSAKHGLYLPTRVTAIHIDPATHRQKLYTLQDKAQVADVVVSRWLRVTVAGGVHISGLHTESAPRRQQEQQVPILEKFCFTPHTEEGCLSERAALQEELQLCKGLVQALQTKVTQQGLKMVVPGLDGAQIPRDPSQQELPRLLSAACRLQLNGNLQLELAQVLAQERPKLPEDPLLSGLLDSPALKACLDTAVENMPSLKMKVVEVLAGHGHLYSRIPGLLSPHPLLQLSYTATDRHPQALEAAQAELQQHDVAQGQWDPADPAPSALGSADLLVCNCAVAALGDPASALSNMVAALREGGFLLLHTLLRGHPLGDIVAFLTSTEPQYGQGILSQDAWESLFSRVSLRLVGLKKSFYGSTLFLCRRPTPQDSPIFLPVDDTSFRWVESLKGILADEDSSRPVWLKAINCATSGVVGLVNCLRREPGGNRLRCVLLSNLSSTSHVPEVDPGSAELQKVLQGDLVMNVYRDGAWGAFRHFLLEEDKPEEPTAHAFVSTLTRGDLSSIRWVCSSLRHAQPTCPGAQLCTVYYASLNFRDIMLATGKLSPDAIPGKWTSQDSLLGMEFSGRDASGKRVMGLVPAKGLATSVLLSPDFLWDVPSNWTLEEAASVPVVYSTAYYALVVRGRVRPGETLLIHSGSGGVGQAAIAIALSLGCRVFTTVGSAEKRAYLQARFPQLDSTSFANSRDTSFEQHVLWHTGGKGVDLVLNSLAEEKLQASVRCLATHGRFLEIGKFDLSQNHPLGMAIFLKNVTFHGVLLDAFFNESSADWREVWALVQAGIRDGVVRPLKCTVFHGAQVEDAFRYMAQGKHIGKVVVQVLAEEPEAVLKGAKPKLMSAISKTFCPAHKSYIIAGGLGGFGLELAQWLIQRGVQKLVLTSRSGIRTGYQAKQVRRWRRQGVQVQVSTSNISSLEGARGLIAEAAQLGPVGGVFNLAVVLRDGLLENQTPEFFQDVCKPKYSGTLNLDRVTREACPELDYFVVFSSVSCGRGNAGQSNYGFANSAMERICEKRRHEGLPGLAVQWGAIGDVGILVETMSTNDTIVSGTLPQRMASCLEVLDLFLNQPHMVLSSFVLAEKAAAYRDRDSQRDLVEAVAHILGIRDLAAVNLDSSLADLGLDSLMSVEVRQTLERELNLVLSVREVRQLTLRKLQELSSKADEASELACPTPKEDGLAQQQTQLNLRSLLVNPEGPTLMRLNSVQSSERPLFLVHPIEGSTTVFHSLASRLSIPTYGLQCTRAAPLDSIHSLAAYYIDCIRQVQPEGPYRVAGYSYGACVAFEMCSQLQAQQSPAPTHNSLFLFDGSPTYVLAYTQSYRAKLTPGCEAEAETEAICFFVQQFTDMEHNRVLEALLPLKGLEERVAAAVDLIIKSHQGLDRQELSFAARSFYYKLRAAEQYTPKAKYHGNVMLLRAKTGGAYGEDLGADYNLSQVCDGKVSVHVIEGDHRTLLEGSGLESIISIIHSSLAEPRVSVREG
- protocol: FAS thioesterase domain inhibitors, dose response, biochemical, kinetic fluorescence intensity (AID 624326);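 also: rate of fluorescence rise from hydrolysis of a fluorogenic O-methyl fluorescein ester substrate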
- Format: functional
The source made the active and inactive calls.

| compound_structure_string | target | IC50 |
| --- | --- | --- |
| O=C(CCCC(=O)Nc1cccc(Br)c1)N/N=C/c1cc([N+](=O)[O-])ccc1O | Fatty acid synthase (Homo sapiens, UniProt P49327) | 7.42 µM (active) |
| O=S(=O)(c1ccccc1)n1ccc(-c2cnc(-c3ccccc3)s2)n1 | Fatty acid synthase (Homo sapiens, UniProt P49327) | 6.85 µM (active) |
| O=C(Nc1nc(-c2ccc(S(=O)(=O)N3CCCC3)cc2)cs1)c1ccco1 | Fatty acid synthase (Homo sapiens, UniProt P49327) | 4.05 µM (active) |
| N#Cc1c(N)[nH]c(C(=O)c2ccccc2)c1-c1ccc(Cl)cc1 | Fatty acid synthase (Homo sapiens, UniProt P49327) | 13.3 µM (active) |
| Cc1ccc(Cn2c(C)nc3ccc([N+](=O)[O-])cc3c2=O)cc1 | Fatty acid synthase (Homo sapiens, UniProt P49327) | 5.2 µM (active) |
| O=C(/C=C/c1cccc([N+](=O)[O-])c1)NCCSCc1ccc(Cl)cc1Cl | Fatty acid synthase (Homo sapiens, UniProt P49327) | 9.88 µM (active) |
| Cc1cc(C)c(NC(=O)COC(=O)c2cc([N+](=O)[O-])ccc2N2CCOCC2)c(C)c1 | Fatty acid synthase (Homo sapiens, UniProt P49327) | 10.8 µM (active) |
| CCCn1c(SCC(=O)Nc2ccccc2-c2ccccc2)nnc1-c1ccoc1C | Fatty acid synthase (Homo sapiens, UniProt P49327) | 7.42 µM (active) |
| O=C(Cn1cnc([N+](=O)[O-])n1)N/N=C/c1cc(Cl)ccc1O | Fatty acid synthase (Homo sapiens, UniProt P49327) | 2.94 µM (active) |

Data origin: ChEMBL document CHEMBL1201862
